experimental-target: human IL-6 (human, UniProt P05231 30-212)
Sequence (P05231 30-212 limits assumed): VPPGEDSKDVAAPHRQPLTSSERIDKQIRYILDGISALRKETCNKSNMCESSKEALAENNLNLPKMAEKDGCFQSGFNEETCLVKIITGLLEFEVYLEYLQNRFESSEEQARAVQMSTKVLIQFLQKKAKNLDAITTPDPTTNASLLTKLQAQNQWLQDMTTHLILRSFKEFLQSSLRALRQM
assay-text: SPR Biacore, supernatant, Protein A capture, 37 C
Method: Those four positions were selected based on their tolerance for mutations as observed in bacterial and mammalian screens. […] These cultures were centrifuged and supernatants containing secreted antibodies were harvested and diluted in HBS-EP+ running buffer (1:20 ratio). Antibodies were captured on a Protein A chip (GE) by injecting 1:20 cell supernatant dilutions at 10 μL/min for 60 seconds. […]
// reported pKd per item
Note: pKd values are expressed as the negative base-10 logarithm of concentration in M.

Worked examples, 5 binders total:
binder="Anti-IL-6 antibody, heavy chain S35H, G66D, L100T / light chain M32L, M50D, N52S, M88Q (antibody, IgG1, V domains shown, IgG1; variable domains only; VL is variant III) VH: EVQLVESGGGLVQPGGSLRLSCAASGFTFSPFAMHWVRQAPGKGLEWVAKISPGGSWTYYSDTVTDRFTFSLDTSKSTAYLQMNSLRAEDTAVYYCARQTWGYYALDIWGQGTLVTVSS VL: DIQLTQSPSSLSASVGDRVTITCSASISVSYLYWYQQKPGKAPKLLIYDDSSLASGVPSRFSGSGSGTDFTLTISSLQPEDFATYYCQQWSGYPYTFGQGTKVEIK" readout_name=pKd result_value=9.69
binder="Anti-IL-6 antibody, heavy chain S35H, G66D, Q99K / light chain M32L, M50D, N52S, M88Q (antibody, IgG1, V domains shown, IgG1; variable domains only; VL is variant III) VH: EVQLVESGGGLVQPGGSLRLSCAASGFTFSPFAMHWVRQAPGKGLEWVAKISPGGSWTYYSDTVTDRFTFSLDTSKSTAYLQMNSLRAEDTAVYYCARKLWGYYALDIWGQGTLVTVSS VL: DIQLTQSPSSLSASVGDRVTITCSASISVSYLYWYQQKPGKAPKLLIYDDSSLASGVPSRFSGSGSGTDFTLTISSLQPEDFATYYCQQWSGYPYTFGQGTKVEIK" readout_name=pKd result_value=9.43
binder="Anti-IL-6 antibody, heavy chain S35H, G66D, Q99L / light chain M32L, M50D, N52S, M88Q (antibody, IgG1, V domains shown, IgG1; variable domains only; VL is variant III) VH: EVQLVESGGGLVQPGGSLRLSCAASGFTFSPFAMHWVRQAPGKGLEWVAKISPGGSWTYYSDTVTDRFTFSLDTSKSTAYLQMNSLRAEDTAVYYCARLLWGYYALDIWGQGTLVTVSS VL: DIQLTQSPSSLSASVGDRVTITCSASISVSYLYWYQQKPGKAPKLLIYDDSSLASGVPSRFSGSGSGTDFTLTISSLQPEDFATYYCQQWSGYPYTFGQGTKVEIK" readout_name=pKd result_value=9.23
binder="Anti-IL-6 antibody, heavy chain S35H, G66D, L100G / light chain WT (antibody, IgG1, V domains shown, IgG1; variable domains only) VH: EVQLVESGGGLVQPGGSLRLSCAASGFTFSPFAMHWVRQAPGKGLEWVAKISPGGSWTYYSDTVTDRFTFSLDTSKSTAYLQMNSLRAEDTAVYYCARQGWGYYALDIWGQGTLVTVSS VL: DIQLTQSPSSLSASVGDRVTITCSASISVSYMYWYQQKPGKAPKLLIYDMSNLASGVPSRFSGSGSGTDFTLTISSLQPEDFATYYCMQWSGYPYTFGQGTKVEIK" readout_name=pKd result_value=9.52
binder="Anti-IL-6 antibody, heavy chain S35H, G66D, Q99H / light chain WT (antibody, IgG1, V domains shown, IgG1; variable domains only) VH: EVQLVESGGGLVQPGGSLRLSCAASGFTFSPFAMHWVRQAPGKGLEWVAKISPGGSWTYYSDTVTDRFTFSLDTSKSTAYLQMNSLRAEDTAVYYCARHLWGYYALDIWGQGTLVTVSS VL: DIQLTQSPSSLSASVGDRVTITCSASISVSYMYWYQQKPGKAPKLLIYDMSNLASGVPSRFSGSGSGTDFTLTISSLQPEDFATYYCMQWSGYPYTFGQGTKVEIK" readout_name=pKd result_value=8.77

Reported pKd, binder Anti-IL-6 antibody, heavy chain S35H, G66D, Q99I / light chain WT (antibody, IgG1, V domains shown, IgG1; variable domains only) VH: EVQLVESGGGLVQPGGSLRLSCAASGFTFSPFAMHWVRQAPGKGLEWVAKISPGGSWTYYSDTVTDRFTFSLDTSKSTAYLQMNSLRAEDTAVYYCARILWGYYALDIWGQGTLVTVSS VL: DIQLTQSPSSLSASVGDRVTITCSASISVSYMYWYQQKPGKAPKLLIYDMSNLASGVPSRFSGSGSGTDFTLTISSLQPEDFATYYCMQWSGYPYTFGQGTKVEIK : ____ 8.41

Reported pKd, binder Anti-IL-6 antibody, heavy chain S35H, G66D, Q99F / light chain M32L, M50D, N52S, M88Q (antibody, IgG1, V domains shown, IgG1; variable domains only; VL is variant III) VH: EVQLVESGGGLVQPGGSLRLSCAASGFTFSPFAMHWVRQAPGKGLEWVAKISPGGSWTYYSDTVTDRFTFSLDTSKSTAYLQMNSLRAEDTAVYYCARFLWGYYALDIWGQGTLVTVSS VL: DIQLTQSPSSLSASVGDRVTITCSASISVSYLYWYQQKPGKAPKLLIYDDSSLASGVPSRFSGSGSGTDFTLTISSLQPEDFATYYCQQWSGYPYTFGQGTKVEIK : ____ 10.00

Reported pKd, binder Anti-IL-6 antibody, heavy chain S35H, G66D, Q99G / light chain WT (antibody, IgG1, V domains shown, IgG1; variable domains only) VH: EVQLVESGGGLVQPGGSLRLSCAASGFTFSPFAMHWVRQAPGKGLEWVAKISPGGSWTYYSDTVTDRFTFSLDTSKSTAYLQMNSLRAEDTAVYYCARGLWGYYALDIWGQGTLVTVSS VL: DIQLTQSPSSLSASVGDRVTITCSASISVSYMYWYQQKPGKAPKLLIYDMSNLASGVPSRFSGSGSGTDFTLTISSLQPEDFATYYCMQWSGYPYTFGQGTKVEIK : ____ 9.02

Reported pKd, binder Anti-IL-6 antibody, heavy chain S35H, G66D, Q99Y / light chain M32L, M50D, N52S, M88Q (antibody, IgG1, V domains shown, IgG1; variable domains only; VL is variant III) VH: EVQLVESGGGLVQPGGSLRLSCAASGFTFSPFAMHWVRQAPGKGLEWVAKISPGGSWTYYSDTVTDRFTFSLDTSKSTAYLQMNSLRAEDTAVYYCARYLWGYYALDIWGQGTLVTVSS VL: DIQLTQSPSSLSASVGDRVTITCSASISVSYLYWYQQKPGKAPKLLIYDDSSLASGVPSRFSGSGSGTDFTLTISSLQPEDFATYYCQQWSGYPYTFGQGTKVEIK : ____ 8.60

Reported pKd, binder Anti-IL-6 antibody, heavy chain S35H, G66D, L100F / light chain WT (antibody, IgG1, V domains shown, IgG1; variable domains only) VH: EVQLVESGGGLVQPGGSLRLSCAASGFTFSPFAMHWVRQAPGKGLEWVAKISPGGSWTYYSDTVTDRFTFSLDTSKSTAYLQMNSLRAEDTAVYYCARQFWGYYALDIWGQGTLVTVSS VL: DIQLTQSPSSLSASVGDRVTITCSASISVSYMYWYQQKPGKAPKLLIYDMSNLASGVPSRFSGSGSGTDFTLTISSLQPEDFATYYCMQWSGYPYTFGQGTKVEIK : ____ 9.61

Reported pKd, binder Anti-IL-6 antibody, heavy chain WT / light chain M32L, M50D, N52S, M88Q (antibody, IgG1, V domains shown, IgG1; variable domains only; VL is variant III) VH: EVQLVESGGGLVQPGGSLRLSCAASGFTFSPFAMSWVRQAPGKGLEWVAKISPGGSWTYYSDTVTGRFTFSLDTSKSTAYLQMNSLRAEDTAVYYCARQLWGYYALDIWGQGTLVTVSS VL: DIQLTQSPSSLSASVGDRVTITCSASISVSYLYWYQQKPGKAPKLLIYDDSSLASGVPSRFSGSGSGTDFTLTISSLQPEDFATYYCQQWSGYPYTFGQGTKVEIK : ____ 9.16

These data points were gathered from patent US20240209076A1.
